For each record, write down the corresponding Rat VPAC2 Receptor: DiscoveRx (EC50; nM), cAMP generation.
- assay.target: T1, rat VPAC2 receptor (rat, UniProt P35000 23-437)
- T1 sequence (looked up): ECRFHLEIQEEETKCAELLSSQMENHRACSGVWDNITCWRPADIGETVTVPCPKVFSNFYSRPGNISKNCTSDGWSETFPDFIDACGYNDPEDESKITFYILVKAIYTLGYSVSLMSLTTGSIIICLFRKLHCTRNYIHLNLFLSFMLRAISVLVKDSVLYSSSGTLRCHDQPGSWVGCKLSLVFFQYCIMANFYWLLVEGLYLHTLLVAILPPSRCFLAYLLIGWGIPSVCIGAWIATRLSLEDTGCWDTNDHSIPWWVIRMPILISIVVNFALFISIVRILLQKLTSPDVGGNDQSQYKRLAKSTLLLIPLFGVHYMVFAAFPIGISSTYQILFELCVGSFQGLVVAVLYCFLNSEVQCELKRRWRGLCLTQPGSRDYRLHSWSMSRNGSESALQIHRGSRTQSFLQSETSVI
- assay.procedure: cell-based or functional assay
Numbered stars: 1 amine (or outer) side, 2 acyl side, 3 side chain; on linkers, the order of the positions; unused ones are H or OH. Square brackets hold non-standard residues; d marks the D form. Ends that are not written are not given here. * marks the point of attachment. Tyr(OMe) = O-methyl-tyrosine, COc1ccc(C[C@H](N[*:1])C(=O)[*:2])cc1; Orn = NCCC[C@H](N)C(=O)O; Hexanoyl = CCCCCC(=O)*; Aib = CC(C)(N)C(=O)O
Numbers only, in nM.

Consider the reported Rat VPAC2 Receptor: DiscoveRx (EC50; nM), cAMP generation for these binders:
- Hexanoyl-HSEAVFTENYT[Orn]LR[Aib]QVAA[Aib]KYLQSI[Orn]N[Orn]GGPSSGAPPPS [VPAC2 receptor peptide agonist P362]: 1.22
- Hexanoyl-HSDAVFTDQ[Tyr(OMe)]TR[Aib]R[Aib]QLAA[Aib]KYLQSIK[Aib]KGGPSSGAPPPS [VPAC2 receptor peptide agonist P408]: 0.04
- HSDAVFTDNYTRLRXQVAAXKYLQSIKXXGGPSSGAPPPS (N-terminal hexanoyl (C6); Aib at 15, 20 and 28; Orn at 29) [VPAC2 receptor peptide agonist P357]: 0.07
- HSDAVFTDQYTXLRXQLAAXXYLQSIXXGGPSSGAPPPS (N-terminal hexanoyl (C6); Orn at 12, 21, 27 and 28; Aib at 15 and 20) [VPAC2 receptor peptide agonist P395]: 0.03
- HSDAVFTEQYTXLRXQLAAXXYLQSIXXGGPSSGAPPPS (N-terminal hexanoyl (C6); Tyr(OMe) at 10 and 22; Orn at 12, 21, 27 and 28; Aib at 15 and 20) [VPAC2 receptor peptide agonist P418]: 0.57

Continue with the binder presented below.
According to the records, this binder HSDAVFTDNYTXLRXQVSAXKYLQSIXNXGGPSSGAPPPS (N-terminal hexanoyl (C6); Orn at 12, 27 and 29; Aib at 15 and 20) [VPAC2 receptor peptide agonist P388] displays Rat VPAC2 Receptor: DiscoveRx (EC50; nM), cAMP generation of 709
